Entry source: ChEMBL document CHEMBL1141081

experiment: Half-life after oral administration; format: ADME, organism-based, Canis lupus familiaris; settings: dog, in vivo
quantityMeasured: half-life (min)

{"smilesData": "O=c1cc(NC2CCN(Cc3ccc4c(c3)OCO4)CC2)c2cc(Cl)ccc2o1", "reported": 264}

---

experiment: Peak plasma concentration after oral administration; assay type: ADME, organism-based, Canis lupus familiaris; set-up: route oral; settings: dog
quantityMeasured: Cmax (ng/mL)

{"smilesData": "O=c1cc(NC2CCN(Cc3ccc4c(c3)OCO4)CC2)c2cc(Cl)ccc2o1", "quantityMeasured": "Cmax", "reported": 200}
